Tested on: RAW-Dual (murine macrophage reporter line)
assay text: IRF reporter (Lucia luciferase) activity fold change vs agonist alone; higher = enhanced IRF activity
assay context: modulator concentration 10 µM; agonist: LPS 0.1 ug/mL
outcome measure: IRF reporter
Answers are plain numbers.

Use the examples below as a reference point.
CCC(C)C(=O)OC1CC(C)C=C2C=CC(C)C(CCC3CC(O)CC(=O)O3)C21 (configuration not stated) ... 1.19
CC(=O)Oc1ccccc1C(=O)O ... 0.964
CCC(=O)Nc1ccc(S(=O)(=O)N2CCSC(c3ccccc3C)CC2)c(C)c1 (configuration not stated) ... 0.996
Clc1ccc(C=NNc2cc(N3CCCC3)nc(N3CCCC3)n2)c(Cl)c1 ... 1.21
CC1(C)CC(=O)C2=C(C1)OC(N)=C(C#N)C21C(=O)Nc2ccc(Br)cc21 (configuration not stated) ... 1.18

// input: 5 compounds below; output: IRF reporter for each
1. COC(=O)[C@]12CCC(C)(C)C[C@H]1[C@H]1C(=O)C=C3[C@@]4(C)C=C(C#N)C(=O)C(C)(C)[C@@H]4CC[C@@]3(C)[C@]1(C)CC2
2. NC(=O)c1ncn(C2OC(CO)C(O)C2O)n1 (configuration not stated)
3. COCCNCCOc1ccccc1C(C)C
4. CSc1ccccc1NC(=O)C1CCCN(c2ccc(-n3cncn3)nn2)C1 (configuration not stated)
5. CN(C)CCCN1c2ccccc2CCc2ccc(Cl)cc21.Cl

stdout:
1. 0.571
2. 0.951
3. 1.32
4. 1.23
5. 1.18

Below are some compounds; for each one, tell me its IRF reporter.
1. Cc1ccc(C(CNC(=O)NC2CCCC2)OCCO)cc1 (configuration not stated)
2. O=C(NC1CCN(c2ccc(C(F)(F)F)cn2)C1)c1nc2ccccc2s1 (configuration not stated)
3. Cc1cccc(NC(=O)Cc2nnc(NC(=O)Nc3ccc(F)cc3)s2)c1
4. COc1cccc2c1C(=O)c1c(O)c3c(c(O)c1C2=O)C[C@@](O)(C(C)=O)C[C@@H]3O[C@H]1C[C@H](N)[C@H](O)[C@H](C)O1.Cl
5. CN1C(=O)C(=C2SC(=S)N(C(CCC(=O)O)C(=O)O)C2=O)c2ccccc21 (configuration not stated)
6. CC(C)(O)CNc1nc(Nc2ccnc(C(F)(F)F)c2)nc(-c2cccc(C(F)(F)F)n2)n1
7. COc1ccc(C=C(NC(=O)c2cc(OC)c(OC)c(OC)c2)C(=O)NC(C(=O)O)C(C)C)c(OC)c1 (configuration not stated)

stdout:
1.07
1.27
1.53
0.0195
1.28
1.3
1.23

Hi, could you look up IRF reporter for each item in my list?
1. Cc1cc(C#N)cc(C)c1Oc1nc(Nc2ccc(C#N)cc2)nc(N)c1Br
2. CC(C)(C)N.CCCC(NC(C)C(=O)N1C(C(=O)O)CC2CCCCC21)C(=O)OCC (configuration not stated)

stdout:
1: 1.05; 2: 1.21

List IRF reporter for every entry below, keeping the order given.
1. Cc1c(F)cc(C(=O)NC2CC2)cc1-c1ccc(C(=O)NCC(C)(C)C)cn1
2. CN1CCN(C(c2ccccc2)c2ccccc2)CC1.Cl.Cl
3. CC(C)Oc1ccc(C(=O)N2CCC(c3ccccc3)S(=O)(=O)CC2)cc1 (configuration not stated)
4. COC(c1ccccc1)(c1ccccc1)C(Oc1nc(C)cc(C)n1)C(=O)O (configuration not stated)
5. Cc1ccc(C2(c3ccc(C)cc3)CC2C(=O)Nc2cccnc2)cc1 (configuration not stated)
6. CC12CC3CC(C)(C1)CC(N)(C3)C2.Cl

stdout:
1: 0.808; 2: 1.25; 3: 1.13; 4: 1.31; 5: 1.01; 6: 1.2
